target: UniProt Q9HBX9; test: RXFP1 cyclic adenosine monophosphate (cAMP) assay, hRXFP1 HEK293; details: HEK293 cells stably expressing human RXFP1; 30 min at room temperature; HTRF cAMP
Sequence (Q9HBX9 whole entry): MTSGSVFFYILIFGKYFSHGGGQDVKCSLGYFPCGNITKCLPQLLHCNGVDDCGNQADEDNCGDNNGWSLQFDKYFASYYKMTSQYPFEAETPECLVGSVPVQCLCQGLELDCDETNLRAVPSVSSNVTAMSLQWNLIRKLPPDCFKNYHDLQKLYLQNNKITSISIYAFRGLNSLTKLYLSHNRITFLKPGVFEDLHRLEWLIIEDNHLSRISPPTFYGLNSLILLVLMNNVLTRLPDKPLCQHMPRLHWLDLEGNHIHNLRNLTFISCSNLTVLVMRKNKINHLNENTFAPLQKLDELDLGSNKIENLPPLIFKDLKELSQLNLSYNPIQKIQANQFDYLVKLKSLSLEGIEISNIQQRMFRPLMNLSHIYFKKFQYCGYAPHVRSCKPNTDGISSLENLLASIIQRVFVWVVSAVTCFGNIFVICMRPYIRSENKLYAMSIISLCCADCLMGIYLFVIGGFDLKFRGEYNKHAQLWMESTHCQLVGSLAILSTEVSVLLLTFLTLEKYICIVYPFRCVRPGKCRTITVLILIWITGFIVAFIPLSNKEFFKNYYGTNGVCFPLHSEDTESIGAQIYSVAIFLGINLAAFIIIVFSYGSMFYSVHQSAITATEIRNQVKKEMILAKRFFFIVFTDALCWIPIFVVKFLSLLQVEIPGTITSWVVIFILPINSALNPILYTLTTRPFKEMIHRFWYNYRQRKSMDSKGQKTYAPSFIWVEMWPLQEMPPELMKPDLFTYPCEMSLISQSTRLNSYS
Please note: EC50 exactly at 0.2 µM is not fulfilled. Only values below 0.2 µM get fulfilled.

Quick check: EC50 of COc1ccc(C2CCN(C(=O)C(C)(C)O)C2)cc1C(=O)Nc1cc2c(cc1C(=O)Nc1ccc(F)c(C(F)(F)F)c1)OC(F)(F)O2 (single isomer, unassigned) [Example 46] under 0.2 µM?
fulfilled

Just wondering, is EC50 of COc1ccc(-c2cc(C(=O)NS(C)(=O)=O)ccc2F)cc1C(=O)Nc1cc2c(cc1C(=O)Nc1ccc(F)c(C(F)(F)F)c1)OC(F)(F)O2 [Example 47] below 0.2 µM?
fulfilled

Quick check: does COc1ccc(-c2cc(S(=O)(=O)NC(C)(C)C)ccc2F)cc1C(=O)Nc1cc2c(cc1C(=O)Nc1ccc(F)c(C(F)(F)F)c1)OC(F)(F)O2 [Example 64] have EC50 under 0.2 µM?
fulfilled

The reported measurements were obtained from patent US20250066344A1.
